- Tested on: NCI-H441
- procedure-summary: relative viability (nuclei count vs DMSO), 5 days (fraction); higher = more cells survive
- cond: first compound 0.5 µM
value-type: relative viability

[
  {
    "compound": "COc1cc2nccc(Oc3ccc(NC(=O)Nc4cc(C)on4)c(Cl)c3)c2cc1OC [Tivozanib] + COc1cccc2cc(-c3nc([C@H]4CC[C@H](C(=O)O)CC4)n4ncnc(N)c34)[nH]c12 [OSI-027] (partner 0.5 µM)",
    "relative viability": 0.344
  },
  {
    "compound": "Nc1ccn([C@@H]2O[C@H](CO)[C@@H](O)[C@@H]2O)c(=O)n1 [Cytarabine] + O=C(CCCCCCC(=O)Nc1ccccc1)NO [Vorinostat] (partner 1 µM)",
    "relative viability": 0.229
  },
  {
    "compound": "Nc1ccn([C@@H]2O[C@H](CO)[C@@H](O)[C@@H]2O)c(=O)n1 [Cytarabine] + COc1cc2c(Oc3ccc(NC(=O)C4(C(=O)Nc5ccc(F)cc5)CC4)cc3F)ccnc2cc1OCCCN1CCOCC1 [Foretinib] (partner 0.25 µM)",
    "relative viability": 0.4
  },
  {
    "compound": "COc1cc2nccc(Oc3ccc(NC(=O)Nc4cc(C)on4)c(Cl)c3)c2cc1OC [Tivozanib] + CC(=O)Nc1cccc(-n2c(=O)n(C3CC3)c(=O)c3c(Nc4ccc(I)cc4F)n(C)c(=O)c(C)c32)c1 [Trametinib] (partner 0.02 µM)",
    "relative viability": 0.433
  },
  {
    "compound": "COc1cc2nccc(Oc3ccc(NC(=O)Nc4cc(C)on4)c(Cl)c3)c2cc1OC [Tivozanib] + Cc1nc(Nc2ncc(C(=O)Nc3c(C)cccc3Cl)s2)cc(N2CCN(CCO)CC2)n1 [Dasatinib] (partner 0.075 µM)",
    "relative viability": 0.394
  }
]

Record COc1cc2nccc(Oc3ccc(NC(=O)Nc4cc(C)on4)c(Cl)c3)c2cc1OC [Tivozanib] + CC(C)C[C@H](NC(=O)[C@H](Cc1ccccc1)NC(=O)c1cnccn1)B(O)O [Bortezomib] (partner 0.002 µM) , field relative viability: 0.34

Record Nc1ccn([C@@H]2O[C@H](CO)[C@@H](O)[C@@H]2O)c(=O)n1 [Cytarabine] + CS(=O)(=O)N1CCN(Cc2cc3nc(-c4cccc5[nH]ncc45)nc(N4CCOCC4)c3s2)CC1 [Pictilisib] (partner 1 µM) , field relative viability: 0.223

Record COc1cc2nccc(Oc3ccc(NC(=O)Nc4cc(C)on4)c(Cl)c3)c2cc1OC [Tivozanib] + O=C(c1cc(Cc2n[nH]c(=O)c3ccccc23)ccc1F)N1CCN(C(=O)C2CC2)CC1 [Olaparib] (partner 8 µM) , field relative viability: 0.396

Record Nc1ccn([C@@H]2O[C@H](CO)[C@@H](O)[C@@H]2O)c(=O)n1 [Cytarabine] + C[C@@H](Oc1cc(-c2cnn(C3CCNCC3)c2)cnc1N)c1c(Cl)ccc(F)c1Cl [Crizotinib] (partner 1 µM) , field relative viability: 0.165
